Data credit: patent US7998989B2

Overview of reported melting point across a group of compounds:
quantity.name: melting point (°C)

* CCCCN1C(=NC2CCCCC2)SCC1CC(=O)Nc1ccc(CC)cc1.Cl (centres unmarked) [KHG24286] | 221.2
* CCCN1C(=NC2CCCCC2)SCC1CC(=O)Nc1cc(C(F)(F)F)cc(C(F)(F)F)c1.Cl (centres unmarked) | 243.4
* CCN1C(=NC2CCCCC2)SCC1CC(=O)Nc1cc([N+](=O)[O-])ccc1F.Cl (centres unmarked) [KHG24278] | 177

---

Overview of reported inhibition at 10 µM across a group of compounds:
- target.under.test: α1G T-type calcium channel (Homo sapiens, UniProt O43497)
- Construct: host or cells: HEK293
- Sequence (O43497 whole entry): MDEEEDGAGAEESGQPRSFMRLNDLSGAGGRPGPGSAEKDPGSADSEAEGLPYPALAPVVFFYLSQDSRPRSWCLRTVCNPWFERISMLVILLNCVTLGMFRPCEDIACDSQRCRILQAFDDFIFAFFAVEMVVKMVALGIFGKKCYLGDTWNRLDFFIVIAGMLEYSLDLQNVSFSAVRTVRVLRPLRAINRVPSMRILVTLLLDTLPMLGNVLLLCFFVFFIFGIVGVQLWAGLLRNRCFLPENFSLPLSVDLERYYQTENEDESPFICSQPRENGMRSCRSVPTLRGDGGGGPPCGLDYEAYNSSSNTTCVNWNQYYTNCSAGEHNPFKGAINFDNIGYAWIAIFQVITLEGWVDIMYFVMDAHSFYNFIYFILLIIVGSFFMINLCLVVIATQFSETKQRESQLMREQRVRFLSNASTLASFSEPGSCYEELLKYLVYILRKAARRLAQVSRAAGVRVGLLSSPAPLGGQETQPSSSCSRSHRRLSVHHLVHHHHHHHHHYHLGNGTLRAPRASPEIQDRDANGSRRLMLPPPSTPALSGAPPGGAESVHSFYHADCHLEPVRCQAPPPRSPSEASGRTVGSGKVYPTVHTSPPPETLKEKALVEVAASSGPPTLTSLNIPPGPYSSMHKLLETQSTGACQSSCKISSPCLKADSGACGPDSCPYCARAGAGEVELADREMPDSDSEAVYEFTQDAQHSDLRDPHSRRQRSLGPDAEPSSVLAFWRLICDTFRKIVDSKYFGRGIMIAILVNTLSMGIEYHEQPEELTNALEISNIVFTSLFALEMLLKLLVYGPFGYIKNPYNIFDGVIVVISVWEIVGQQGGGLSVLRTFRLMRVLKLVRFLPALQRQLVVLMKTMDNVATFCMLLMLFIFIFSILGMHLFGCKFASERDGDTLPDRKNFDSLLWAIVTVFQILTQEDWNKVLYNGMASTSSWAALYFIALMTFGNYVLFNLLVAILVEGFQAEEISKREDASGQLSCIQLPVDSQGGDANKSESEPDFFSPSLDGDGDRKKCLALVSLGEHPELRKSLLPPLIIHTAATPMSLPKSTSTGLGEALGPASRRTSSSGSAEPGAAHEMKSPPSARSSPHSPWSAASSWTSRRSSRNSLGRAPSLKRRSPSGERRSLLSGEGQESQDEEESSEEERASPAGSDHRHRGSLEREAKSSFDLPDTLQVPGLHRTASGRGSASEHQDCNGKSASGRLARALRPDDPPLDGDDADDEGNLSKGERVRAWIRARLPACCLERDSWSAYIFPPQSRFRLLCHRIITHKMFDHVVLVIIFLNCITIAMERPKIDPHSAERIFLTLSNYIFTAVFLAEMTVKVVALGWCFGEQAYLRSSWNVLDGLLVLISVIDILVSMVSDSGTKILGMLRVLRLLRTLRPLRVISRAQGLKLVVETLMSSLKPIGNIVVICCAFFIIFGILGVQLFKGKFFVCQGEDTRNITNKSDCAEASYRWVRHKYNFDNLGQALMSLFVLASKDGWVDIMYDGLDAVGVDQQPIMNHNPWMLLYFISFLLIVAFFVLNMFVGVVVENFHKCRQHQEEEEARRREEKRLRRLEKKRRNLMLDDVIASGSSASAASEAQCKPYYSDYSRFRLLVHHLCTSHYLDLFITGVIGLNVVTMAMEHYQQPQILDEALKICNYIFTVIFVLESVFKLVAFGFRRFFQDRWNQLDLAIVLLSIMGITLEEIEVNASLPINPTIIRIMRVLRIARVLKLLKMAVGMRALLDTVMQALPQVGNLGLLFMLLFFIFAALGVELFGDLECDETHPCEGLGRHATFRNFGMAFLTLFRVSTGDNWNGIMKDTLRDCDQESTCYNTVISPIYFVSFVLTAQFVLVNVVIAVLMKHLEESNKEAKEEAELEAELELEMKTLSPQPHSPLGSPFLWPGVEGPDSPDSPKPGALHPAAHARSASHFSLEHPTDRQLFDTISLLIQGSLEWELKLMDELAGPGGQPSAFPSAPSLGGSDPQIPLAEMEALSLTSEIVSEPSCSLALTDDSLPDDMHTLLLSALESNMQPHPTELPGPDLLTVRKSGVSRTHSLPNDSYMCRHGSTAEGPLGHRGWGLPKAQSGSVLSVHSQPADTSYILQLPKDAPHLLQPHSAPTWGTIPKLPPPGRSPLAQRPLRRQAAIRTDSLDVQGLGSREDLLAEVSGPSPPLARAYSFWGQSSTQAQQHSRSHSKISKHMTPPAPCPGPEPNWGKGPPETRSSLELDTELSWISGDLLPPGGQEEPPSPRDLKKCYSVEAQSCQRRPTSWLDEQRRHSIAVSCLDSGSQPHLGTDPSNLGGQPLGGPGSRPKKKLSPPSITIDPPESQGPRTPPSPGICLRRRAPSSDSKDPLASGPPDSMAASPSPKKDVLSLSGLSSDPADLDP
- test.details: Assay for % inhibiting activity against T-type calcium channel using FDSS6000 (fluo-3 calcium imaging, KCl activation)
- Format: cell-based
- assay.setup: HEK293, 10 μM; HEK293 cells stably expressing α1G T-type calcium channel and Kir2.1; compounds of the examples; read-out: FDSS (% inhibition)/10uM
quantity.name: inhibition at 10 µM (%)

- CCCCN1C(=NC23CC4CC(CC(C4)C2)C3)SCC1CC(=O)Nc1ccc(Cl)cc1.Cl (stereo not shown) [KHG24775, hydrochloride]: 62.9
- CCCN1C(=NC23CC4CC(CC(C4)C2)C3)SCC1CC(=O)Nc1ccc(C)cc1.Cl (stereo not shown) [KHG24813, hydrochloride]: 61.6
- CCCN1C(=NC2CCCCC2)SCC1CC(=O)Nc1ccc(Oc2ccccc2)cc1.Cl (stereo not shown) [KHG24290, hydrochloride]: 62.2
- Cl.O=C(CC1CSC(=NC23CC4CC(CC(C4)C2)C3)N1C1CC1)Nc1ccc(Cl)cc1F (stereo not shown) [KHG24801, hydrochloride]: 63.8

---

quantity.name: melting point

* CN1C(=NC2CC2)SCC1CC(=O)Nc1cc([N+](=O)[O-])ccc1F.Cl (centres unmarked) | 237.5 to 238 °C
* CC(C)c1ccc(NC(=O)CC2CSC(=NCCc3ccccc3)N2C)cc1.Cl (centres unmarked) | 225 °C
* Br.CC(C)c1ccc(NC(=O)C2CSC(=NC3CCCCCC3)N2C)cc1 (centres unmarked) | 282.2 °C
* CCN1C(=NC2CCCCC2)SCC1CC(=O)Nc1ccc(C(F)(F)F)cc1.Cl (centres unmarked) | 191 °C
* CN1C(=NC2CCCC2)SCC1CC(=O)Nc1cc(Cl)ccc1F.Cl (centres unmarked) | 214 to 216 °C

---

Overview of reported inhibition at 10 µM across a group of compounds:
- target.under.test: α1G T-type calcium channel (Homo sapiens)
- Construct: host or cells: HEK293
- test.details: Assay for % inhibiting activity against T-type calcium channel using FDSS6000 (fluo-3 calcium imaging, KCl activation)
- Type: cell-based
- assay.setup: 10 μM; FDSS (% inhibition); comparative compounds where R6 is a phenyl group; read-out: FDSS
quantity.name: inhibition at 10 µM (%)

- CC(C)c1ccc(NC(=O)CC2CSC(=Nc3ccc(C(F)(F)F)cc3)N2C)cc1.Cl (centres unmarked) [KHG21943, hydrochloride]: -2.56
- CN1C(=Nc2ccc(Cl)cc2)SCC1CC(=O)Nc1ccc(Cl)cc1.Cl (centres unmarked) [KHG21652, hydrochloride]: -7.7
- CN1C(=Nc2ccc(Br)cc2)SCC1CC(=O)Nc1ccc(Cl)cc1F.Cl (centres unmarked) [KHG23065, hydrochloride]: 3.57
- CN1C(=Nc2ccc(Oc3ccccc3)cc2)SCC1CC(=O)Nc1ccc(Cl)cc1.Cl (centres unmarked) [KHG21650, hydrochloride]: 2.59
- CN1C(=Nc2ccc(-c3ccccc3)cc2)SCC1CC(=O)Nc1ccc(Cl)cc1F.Cl (centres unmarked) [KHG23073, hydrochloride]: 28.3
- CCc1ccc(N=C2SCC(CC(=O)Nc3ccc(Cl)cc3F)N2C)cc1.Cl (centres unmarked) [KHG23072, hydrochloride]: 29.4
- COc1cccc(N=C2SCC(CC(=O)Nc3ccc(Cl)cc3)N2C)c1.Cl (centres unmarked) [KHG21649, hydrochloride]: 27.8
- CN1C(=Nc2cccc([N+](=O)[O-])c2)SCC1CC(=O)Nc1ccc(Cl)cc1.Cl (centres unmarked) [KHG21655, hydrochloride]: 4.68

---

# cutoff 200 °C applies to melting point; >= gives true, < gives false

• CCCCN1C(=NC23CC4CC(CC(C4)C2)C3)SCC1CC(=O)Nc1ccc(Br)cc1.Cl (centres unmarked) [KHG24784] = false
• CCCN1C(=NC2CCCCC2)SCC1CC(=O)Nc1ccc(C)cc1.Cl (centres unmarked) [KHG24297] = false
• CCCCc1ccc(NC(=O)CC2CSC(=NC3CCCCC3)N2Cc2ccccc2)cc1.Cl (centres unmarked) [KHG24406] = false
• CN1C(=NCCc2ccccc2)SCC1CC(=O)Nc1cc(C(F)(F)F)cc(C(F)(F)F)c1.Cl (centres unmarked) [KHG24216] = true
• CCCN1C(=NC2CCCCC2)SCC1CC(=O)Nc1ccc(CC)cc1.Cl (centres unmarked) [KHG24298] = true
• CCCCN1C(=NC23CC4CC(CC(C4)C2)C3)SCC1CC(=O)Nc1ccc(Cl)cc1.Cl (centres unmarked) [KHG24775] = false
• CCCN1C(=NC2CCCCC2)SCC1CC(=O)Nc1ccc(F)cc1.Cl (centres unmarked) [KHG24296] = false
• Br.Cc1ccc(NC(=O)C2CSC(=NC3CCCCCC3)N2C)cc1 (centres unmarked) = true
• Br.CN1C(=NC2CCCCCC2)SCC1C(=O)Nc1cc([N+](=O)[O-])ccc1F (centres unmarked) = true
• CCc1ccc(NC(=O)CC2CSC(=NC3CCCCC3)N2Cc2ccccc2)cc1.Cl (centres unmarked) [KHG24306] = false
• CCCN1C(=NC23CC4CC(CC(C4)C2)C3)SCC1CC(=O)Nc1cc([N+](=O)[O-])ccc1F.Cl (centres unmarked) [KHG24839] = false
• CN1C(=NC2C3CC4CC(C3)CC2C4)SCC1CC(=O)Nc1ccc(F)cc1.Cl (centres unmarked) [KHG24842] = false
• CN1C(=NC2CCCCCC2)SCC1C(=O)Nc1cc(Cl)cc(Cl)c1 (centres unmarked) [KHG24674] = false
• Br.CN1C(=NC2CCCCCC2)SCC1C(=O)Nc1ccc(Cl)cc1 (centres unmarked) = true
• CCN1C(=NC23CC4CC(CC(C4)C2)C3)SCC1CC(=O)Nc1ccc(C(C)C)cc1.Cl (centres unmarked) [KHG24819] = false
• CN1C(=NC2CCCCCC2)SCC1C(=O)NCc1ccccc1C(F)(F)F (centres unmarked) [KHG24671] = true
• CCCCN1C(=NC23CC4CC(CC(C4)C2)C3)SCC1CC(=O)Nc1ccc(CC)cc1.Cl (centres unmarked) [KHG24782] = false
• CCCN1C(=NC23CC4CC(CC(C4)C2)C3)SCC1CC(=O)Nc1cc(Cl)ccc1F.Cl (centres unmarked) [KHG24817] = false
• CCCCN1C(=NC23CC4CC(CC(C4)C2)C3)SCC1CC(=O)Nc1ccc(F)cc1.Cl (centres unmarked) [KHG24780] = false

---

Overview of reported melting point across a group of compounds:
quantity.name: melting point (°C)

• CCCCN1C(=NC2CCCCC2)SCC1CC(=O)Nc1ccc(Oc2ccccc2)cc1.Cl (stereo not drawn) = 213.3
• CCCN1C(=NC2CCCCC2)SCC1CC(=O)Nc1ccc(Cl)cc1.Cl (stereo not drawn) = 206.8
• CCCCN1C(=NC2CCCCC2)SCC1CC(=O)Nc1ccc(C)cc1.Cl (stereo not drawn) = 183.4
• Cl.O=C(CC1CSC(=NC23CC4CC(CC(C4)C2)C3)N1C1CC1)Nc1ccc(Cl)cc1F (stereo not drawn) = 261
• CCc1ccc(NC(=O)CC2CSC(=NC34CC5CC(CC(C5)C3)C4)N2C(C)C)cc1.Cl (stereo not drawn) = 171
• CCCN1C(=NC23CC4CC(CC(C4)C2)C3)SCC1CC(=O)Nc1ccc(C(F)(F)F)cc1.Cl (stereo not drawn) = 221
• CCCCN1C(=NC23CC4CC(CC(C4)C2)C3)SCC1CC(=O)Nc1ccc(C(F)(F)F)cc1.Cl (stereo not drawn) = 220
• CN1C(=NC2CCCCCC2)SCC1C(=O)NCc1cccc(Br)c1 (stereo not drawn) = 133
• CN1C(=NCC2CCCCC2)SCC1CC(=O)Nc1ccc(Oc2ccccc2)cc1.Cl (stereo not drawn) = 250.8
• Cl.O=C(CC1CSC(=NC2CCCCC2)N1Cc1ccccc1)Nc1ccc(Br)cc1 (stereo not drawn) = 181.4
• CCN1C(=NC2CCCCC2)SCC1CC(=O)Nc1ccc(C)cc1.Cl (stereo not drawn) = 211.9

---

Criterion: melting point strictly less than 200 °C. Met: TRUE. Not met: FALSE.

* Cl.O=C(CC1CSC(=NC2CCCCC2)N1Cc1ccccc1)Nc1cc(C(F)(F)F)cc(C(F)(F)F)c1 (stereo not shown) | FALSE
* Br.CN1C(=NC2CCCCCC2)SCC1C(=O)Nc1cc(Cl)ccc1F (stereo not shown) | FALSE
* CCCCc1ccc(NC(=O)CC2CSC(=NC3CCCCC3)N2CC)cc1.Cl (stereo not shown) [KHG24277] | TRUE
* CC(C)c1ccc(NC(=O)CC2CSC(=NCC3CCCCC3)N2C)cc1.Cl (stereo not shown) [KHG24222] | FALSE
* CCCCN1C(=NC2CCCCC2)SCC1CC(=O)Nc1ccc(C(C)C)cc1.Cl (stereo not shown) [KHG24283] | FALSE
* CCN1C(=NC2CCCCC2)SCC1CC(=O)Nc1ccc(C)cc1Cl.Cl (stereo not shown) [KHG24420] | TRUE
* Br.CN1C(=NC2CCCCCC2)SCC1C(=O)NCc1ccccc1C(F)(F)F (stereo not shown) [KHG24670] | FALSE
* CCCCc1ccc(NC(=O)CC2CSC(=NC34CC5CC(CC(C5)C3)C4)N2C(C)C)cc1.Cl (stereo not shown) | TRUE
* CCCN1C(=NC23CC4CC(CC(C4)C2)C3)SCC1CC(=O)Nc1ccc(C(C)C)cc1.Cl (stereo not shown) [KHG24807] | TRUE
* Cl.O=C(CC1CSC(=NC2CCCCC2)N1Cc1ccccc1)Nc1ccc(C(F)(F)F)cc1 (stereo not shown) [KHG24407] | FALSE
* CCN1C(=NC2CCCCC2)SCC1CC(=O)NCc1ccc(C)cc1.Cl (stereo not shown) [KHG24292] | TRUE
* CCCN1C(=NC2CCCCC2)SCC1CC(=O)Nc1ccc(Oc2ccccc2)cc1.Cl (stereo not shown) [KHG24290] | FALSE
